- Tgt: Nav1.5 sodium channel transfected into HEK293 cells (Homo sapiens, UniProt Q14524)
- Assay Info: Patch clamp electrophysiology, peak (INaP) and late (INaL) sodium current in transfected cells
- Condition Label: read-out: Late Na+ (INaL) IC50; patch clamp, transfected cells
Experimental Readout: IC50 (nM)
// units = nM; emit number, no label

Task: Data request, read-out IC50, for COCCNC(COc1ccccc1C)c1ccccc1.Cl (stereo not shown) [Compound 90]
Output: 2830

---

- Tested on: cardiomyocytes derived from hiPSCs from a LQTS3 patient
- Condition Label: LQT3 cardiomyocytes
Each item that follows carries a reported LQT-Cessation Dose.
// units = µM; emit number, no label

The following compounds have reported results that may help.
{"Compound": "COCCNC(COc1cc(C(F)(F)F)cc(C(F)(F)F)c1)c1ccccc1.Cl (stereo not drawn) [Compound 80]", "Tgt": "cardiomyocytes derived from hiPSCs from a LQTS3 patient", "LQT-Cessation Dose, µM": 133}
{"Compound": "Cc1ccc(OCC(N)C2CC2)c(C)c1.Cl (stereo not drawn) [Compound 65]", "Tgt": "cardiomyocytes derived from hiPSCs from a LQTS3 patient", "LQT-Cessation Dose, µM": 200}
{"Compound": "COc1ccc(C(N)COc2c(C)cccc2C)cc1 (stereo not drawn) [Compound 15]", "Tgt": "cardiomyocytes derived from hiPSCs from a LQTS3 patient", "LQT-Cessation Dose, µM": 66}
{"Compound": "COCCNC(COc1ccccc1C)c1ccccc1.Cl (stereo not drawn) [Compound 90]", "Tgt": "cardiomyocytes derived from hiPSCs from a LQTS3 patient", "LQT-Cessation Dose, µM": 133}
{"Compound": "CCCCNC(COc1cccc(C)c1C)c1ccccc1 (stereo not drawn) [Compound 30]", "Tgt": "cardiomyocytes derived from hiPSCs from a LQTS3 patient", "LQT-Cessation Dose, µM": 200}

Task: Data request, read-out LQT-Cessation Dose, for Cc1cc(C)cc(OCC(N)c2ccccc2)c1.Cl (racemic) [Compound 70]
Output: 66

Task: Data request, read-out LQT-Cessation Dose, for CCCc1ccccc1OCC(N)c1ccccc1 (stereo not drawn) [Compound 23, 1-phenyl-2-(2-propylphenoxy)ethanamine]
Output: 22
